target: Endoplasmic reticulum aminopeptidase 1 (ERAP1) (UniProt Q9NZ08 1-941, limits assumed); assay: cell-based or functional assay
Sequence (Q9NZ08 whole entry): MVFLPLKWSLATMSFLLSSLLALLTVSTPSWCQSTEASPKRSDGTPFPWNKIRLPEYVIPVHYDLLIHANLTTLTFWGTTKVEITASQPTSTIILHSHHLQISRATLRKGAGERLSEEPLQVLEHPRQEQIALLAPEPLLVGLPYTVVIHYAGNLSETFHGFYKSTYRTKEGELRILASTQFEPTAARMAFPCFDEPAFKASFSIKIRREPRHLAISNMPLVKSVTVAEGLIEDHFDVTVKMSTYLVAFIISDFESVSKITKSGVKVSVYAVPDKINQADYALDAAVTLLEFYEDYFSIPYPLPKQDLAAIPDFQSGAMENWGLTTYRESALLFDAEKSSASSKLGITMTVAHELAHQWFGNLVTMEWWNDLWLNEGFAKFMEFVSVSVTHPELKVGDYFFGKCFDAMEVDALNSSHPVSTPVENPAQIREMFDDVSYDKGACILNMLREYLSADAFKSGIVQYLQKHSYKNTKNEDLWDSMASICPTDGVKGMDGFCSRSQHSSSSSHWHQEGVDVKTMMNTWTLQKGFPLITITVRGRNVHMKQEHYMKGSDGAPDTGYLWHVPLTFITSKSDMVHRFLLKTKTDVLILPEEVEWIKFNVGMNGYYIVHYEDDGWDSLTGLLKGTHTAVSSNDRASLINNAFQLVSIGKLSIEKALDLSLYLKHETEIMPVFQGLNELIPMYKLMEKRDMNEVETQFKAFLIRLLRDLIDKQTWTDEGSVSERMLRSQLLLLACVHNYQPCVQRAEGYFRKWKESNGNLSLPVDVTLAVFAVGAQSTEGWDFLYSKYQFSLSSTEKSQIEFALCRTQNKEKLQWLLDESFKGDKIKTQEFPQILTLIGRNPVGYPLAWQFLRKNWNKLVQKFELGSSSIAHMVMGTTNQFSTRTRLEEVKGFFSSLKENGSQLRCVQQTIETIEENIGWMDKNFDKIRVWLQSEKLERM
Readout: formation rate (%) 8 hr later

Binder | formation rate (%) 8 hr later
CLVLQELNVTV [peptide CLVLQELNVTV (SEQ ID NO: 93)] | 36.1
CLGLYDGMEHL [peptide CLGLYDGMEHL (SEQ ID NO: 90)] | 88.3
CVLQELNVTV [peptide CVLQELNVTV (SEQ ID NO: 99)] | 83.9
H-CGLYDGMEHL-OH [peptide CGLYDGMEHL (SEQ ID NO: 98)] | 101
CAGLYDGMEHL [peptide CAGLYDGMEHL (SEQ ID NO: 89)] | 97.5

I = CMGLYDGMEHL [peptide CMGLYDGMEHL (SEQ ID NO: 91)]
II = CAVLQELNVTV [peptide CAVLQELNVTV (SEQ ID NO: 92)]
III = CMVLQELNVTV [peptide CMVLQELNVTV (SEQ ID NO: 94)]
Task: In this exercise, place the 3 binders in ascending sequence of their recorded formation rate (%) 8 hr later. Please express your ranking as an ordered list of the labels.
Result: III, II, I
(III: 36.8%, II: 53.5%, I: 101%)

Hey, just so you know, these numbers are from patent US20200171136A1.
